system: control serum Blood-bank (commercial negative donor pooled serum); type: binding, human
MEASURE: Control Serum Blood-Bank Looped peptides
Give a plain numeric answer without units written out.

Give control serum Blood-bank (commercial negative donor pooled serum) Control Serum Blood-Bank Looped peptides for ELTLIDFYLCFLAFL
0.6

What would you report for VAVIQEIQLLAAVGE ?
0.6

What would you report for MLPPCYNFLKEQHCQ ?
0.7

Further cases:
Give control serum Blood-bank (commercial negative donor pooled serum) Control Serum Blood-Bank Looped peptides for AEAAVKPLLAPHHVV
0.6

What would you report for PLLAPHHVVAVIQEI ?
0.6

What would you report for PCYNFLKEQHCQKAS ?
0.7

What would you report for LTLIDFYLCFLAFLL ?
0.5

What would you report for AVGEILLLEWLAEVV ?
0.8

What would you report for NELTLIDFYLCFLAF ?
0.5

What would you report for VKPLLAPHHVVAVIQ ?
0.7

What would you report for KEQHCQKASTQREAE ?
0.9
